# Test system: HL-60(TB) leukemia
# Experimental protocol: NCI tumour cell line growth inhibition, 48 h
Please provide measured TGI for the entries that follow.

| Compound | Assay system | TGI |
| --- | --- | --- |
| Cc1cc(=O)oc2c(CNC(Cc3ccccc3)C(=O)O)c(O)ccc12 (stereo unspecified) | HL-60(TB) leukemia | > 100 µM |
| CCCCCCCCCCCCC(O)[C@H]1CC[C@H](C(O)CCCCCC(=O)CCCCC2CC(C(C)=O)C(=O)O2)O1 (stereo partly specified) | HL-60(TB) leukemia | > 29.5 µM |

Can you give me TGI for all of these, one by one?
1. C=C1CCC([N+](=O)[O-])[C@](C)(N=O)CC[C@@H]2C1CC2(C)C (stereo partly specified)
2. C/C(=C\c1csc(C)n1)[C@@H]1C[C@@H]2O[C@]2(C)CCC[C@H](C)[C@H](O)[C@@H](C)C(=O)C(C)(C)[C@@H](O)CC(=O)O1

OUT:
1. > 100 µM
2. < 0.0001 µM

// input: 2 compounds below; output: TGI for each
1. COc1ccc(-c2cc3[nH]nc(N)c3c(=O)o2)cc1
2. CCOC(=O)CCC(NC(=O)c1ccc(OCc2ccc3nc(-c4ccccc4)c(Cl)nc3c2)cc1)C(=O)OCC (stereo unspecified)

OUT:
> 100 µM
> 31.6 µM

====

# Tested on: SF-268 CNS
# Experimental protocol: NCI tumour cell line growth inhibition, 48 h
Property measured: TGI

Consider the worked cases shown below.
| Molecule | TGI |
| --- | --- |
| COc1ccc(/C=C2\CCC(C)C3=C2N=c2s/c(=C/c4cccc(Br)c4)c(=O)n2C3c2ccc(OC)c(OC)c2)cc1OC (centres undefined) | > 100 µM |
| Cc1ccc(S(=O)(=O)NNCNC(=O)c2ccccc2)cc1 | > 100 µM |
| COc1cc(/C=C/C(=O)C2(C(=O)/C=C/c3cc(OC)c(OC)c(OC)c3)CCCCC2)cc(OC)c1OC | > 100 µM |
| Cc1cc(N2CCOCC2)cc2[nH]c(-c3c(NC[C@@H](O)c4cccc(Cl)c4)cc[nH]c3=O)nc12 | 7.63 µM |
| CSc1nc(SC)c2c(CO)c(Br)n(Cc3ccccc3)c2n1 | 33.7 µM |

Would you be so kind as to report TGI for each listed record?
1. C/C(=N\NC(=S)NCCCNC(=S)N/N=C(\C)c1ccccn1)c1ccccn1
2. COc1ccc(-c2cc3[nH]nc(N)c3c(=O)o2)cc1
3. CC1(C)C2C=CC1C(=O)CC2 (centres undefined)
4. CC(=O)OCc1ccc2oc(=O)c(C(=O)Oc3ccccc3)cc2c1

OUT:
1: 21 µM; 2: > 100 µM; 3: > 100 µM; 4: > 100 µM

====

For each entry below, report its TGI value.
# System: RXF 393 renal
# Experimental protocol: NCI tumour cell line growth inhibition, 48 h
Where a SMILES comes first, the peptide text is derived from it. [ ]: non-standard residue; d: D form. The star is where a group is joined. Phe(4-NO2) = N[CH](Cc1ccc([N+](=O)[O-])cc1)C(=O)O; Boc = CC(C)(C)OC(=O)*

Check out these entries, answers already filled in.
| Molecule | Assay system | TGI |
| --- | --- | --- |
| C=CCC1C(=O)CC2(C)CC(=O)C(CC=C)C12C (stereo not given) | RXF 393 renal | > 100 µM |
| CCN(CC)C(=O)C(C)n1cc(C)c(=O)[nH]c1=O (stereo not given) | RXF 393 renal | > 100 µM |
| CN1C(=O)C2C(C1=O)C1(O)c3ccccc3C2(N)c2ccccc21 (stereo not given) | RXF 393 renal | > 100 µM |
| COc1cc(CNNC(N)=S)cc(OC)c1OC | RXF 393 renal | > 100 µM |

Let's switch to this molecule now.
According to the records, this molecule CNC(=O)CCC(NC(=O)OC(C)(C)C)C(=O)NC(Cc1ccc([N+](=O)[O-])cc1)C(=O)NCC(=O)NC (stereo not given) (Boc-Glu(NHMe)-[Phe(4-NO2)]-Gly-NHMe; configuration not given here) displays TGI of > 100 µM

====

# Test system: NCI/ADR-RES ovarian
# Experimental protocol: NCI tumour cell line growth inhibition, 48 h
Assign TGI to each entry below.

Here are 5 compounds together with their reported answers.
| Compound | Assay system | Result |
| --- | --- | --- |
| CC1(C)CCC[C@]2(C)[C@H]3[C@H](C#N)c4cc(O)c(O)cc4O[C@@]3(C)CC[C@@H]12 | NCI/ADR-RES ovarian | > 10 µM |
| COc1cc(/C=C/C(=O)C2(C(=O)/C=C/c3cc(OC)c(OC)c(OC)c3)CCCCC2)cc(OC)c1OC | NCI/ADR-RES ovarian | > 100 µM |
| Cc1cn(CC2=NCC(C)N2)c(=O)[nH]c1=O (centres undefined) | NCI/ADR-RES ovarian | > 100 µM |
| COC(=O)C1(C)C=CC(=O)C2(C)C1C(O)C1OC3CC(c4ccoc4)C(C)=C3C1(C)C2CC(=O)O (centres undefined) | NCI/ADR-RES ovarian | > 100 µM |
| CC(=O)c1cc2ccccc2oc1=O | NCI/ADR-RES ovarian | > 100 µM |

Dear colleague, could you send me TGI for each of the items below? Thanks.
1. CCCCCCCCCCCCCCCCCCN(C)CC(COP(=O)([O-])OCC[N+](C)(C)C)OC (centres undefined)
2. CN(C)CCNC(=O)c1ccc(NC(=O)c2nc([N+](=O)[O-])cn2C)cc1
3. NCCCNCCCCNC(=O)C(O)NC(=O)CCCCCCN=C(N)N (centres undefined)
4. CC1(C)OCC=CCO1

OUT:
1. > 100 µM
2. > 100 µM
3. > 5000 µM
4. > 100 µM

====

I'd appreciate it if you could supply TGI values for the items below.
# Tested on: SF-295 CNS
# Experimental protocol: NCI tumour cell line growth inhibition, 48 h

| Compound | Assay system | TGI |
| --- | --- | --- |
| CC(C(O)c1ccccc1)C(O)(C(F)(F)F)C(F)(F)F (stereo not drawn) | SF-295 CNS | > 100 µM |
| Cn1c2ccccc2c(=O)c2cccc(C(=O)NC(CCC(N)=O)C(=O)O)c21 (stereo not drawn) | SF-295 CNS | > 100 µM |

The reported TGI value, SF-295 CNS, for `O=C(OC[C@H]1O[C@H](OC(=O)c2cc(O)c(O)c(OC(=O)c3cc(O)c(O)c(O)c3)c2)[C@H](OC(=O)c2cc(O)c(O)c(OC(=O)c3cc(O)c(O)c(O)c3)c2)[C@@H](OC(=O)c2cc(O)c(O)c(OC(=O)c3cc(O)c(O)c(O)c3)c2)[C@@H]1OC(=O)c1cc(O)c(O)c(OC(=O)c2cc(O)c(O)c(O)c2)c1)c1cc(O)c(O)c(OC(=O)c2cc(O)c(O)c(O)c2)c1` reads > 25 µM

====

For each record, write down the corresponding TGI.
# System: SK-MEL-28 melanoma
# Experimental protocol: NCI tumour cell line growth inhibition, 48 h
Numbers only, in µM.

| Compound | Display unit | TGI |
| --- | --- | --- |
| CC1OC(n2cc(F)c(=O)[nH]c2=O)C=CC1=O (centres undefined) | µM | 31.5 |
| Cc1ncc(C(=O)Nc2ccc(CN3CCN(C)CC3)c(C(F)(F)F)c2)cc1C#Cc1cnc(N)cc1C#N | µM | 1.69 |
| CCCCCCCCCCNC(=O)CCC(NC(=O)c1ccc(N(C)Cc2cnc3nc(N)nc(N)c3n2)cc1)C(=O)NCCCCCCCCCC (centres undefined) | µM | 23.6 |

Now examine the next entry.
Please fill in: TGI reported for `CC(=O)OCc1cc2ccccc2nc1C(Br)(Br)Br` = 42.6

====

# Test system: T-47D breast
# Experimental protocol: NCI tumour cell line growth inhibition, 48 h
Property measured: TGI

| Compound | Assay system | TGI |
| --- | --- | --- |
| Cc1ccc(S(=O)(=O)NNCNC(=O)c2ccccc2)cc1 | T-47D breast | > 100 µM |
| CC(C(O)c1ccccc1)C(O)(C(F)(F)F)C(F)(F)F (stereo unspecified) | T-47D breast | > 100 µM |
| Cc1cc(=O)oc2c(CNC(Cc3ccccc3)C(=O)O)c(O)ccc12 (stereo unspecified) | T-47D breast | > 100 µM |
| CC(=O)OCc1cc2ccccc2nc1C(Br)(Br)Br | T-47D breast | > 100 µM |
| COCN1C(=O)[C@@H]2CCCN2C(=O)c2cc(N)ccc21 | T-47D breast | > 100 µM |

Lab note: next compound to report on.
Note to self: TGI recorded for `CCNC(=O)O[C@H]1CN[C@H](C#Cc2cc3ncnc(Nc4ccc(OCc5cccc(F)c5)c(Cl)c4)c3s2)C1` was > 25 µM
